// provenance: patent US20250319067A1

# experiment summary: Phase 1 FIH study: plasma pharmacokinetics (LC-MS/MS)
# Assay type: in vivo
# assay conditions: female, plasma; human, RE104 dose 11 mg SC (n = 6)
measure: Cmax (ng/mL)
Provide the reading as a plain figure in ng/mL.

>>> print(df.to_string())
                                   molecule  measure  data_value
0  CC(C)N(CCc1c[nH]c2cccc(OC(=O)CCCC(=O)O)c12)C(C)C [RE104]     Cmax         527

Consider the record given below.
Query block: Look up and state reported Cmax for CC(C)N(CCc1c[nH]c2cccc(O)c12)C(C)C [4-OH-DiPT]
Result block: 60
